assay: non-covalent RecA intein splicing inhibitors, dose response, biochemical, cell-free, fluorescence, secondary screen (AID 449750)
Calls of active or inactive are those of the source. The rule behind the calls is not given here.
Mark one answer only. Choices: t for active, f for inactive

stdin: Record lookup: outcome of this test for `COC(=O)CSc1nc2sc3c(c2c(=O)n1C1CCCCC1)CCN(C)C3` ?
stdout: f

stdin: Record lookup: outcome of this test for Cc1cc(C)cc(OC(=O)CS(=O)c2ccc(C(F)(F)F)cc2[N+](=O)[O-])c1 (centres undefined) ?
stdout: f

stdin: Record lookup: outcome of this test for `Cc1nnc(NC(=O)c2nc(S(=O)(=O)Cc3ccccc3)ncc2Cl)s1` ?
stdout: t

stdin: Record lookup: outcome of this test for `COC(=O)[C@@H]1C[C@]2(OC(=O)c3ccccc3)C=CC(=O)C[C@@H]2N1C(=O)OCc1ccccc1` ?
stdout: t

stdin: Record lookup: outcome of this test for `NC1=C(Br)C(=O)c2ccccc2C1=O` ?
stdout: t

stdin: Record lookup: outcome of this test for `Cc1ccc(N2C(=O)C(Cl)=C(N3CCOCC3)C2=O)c(C)c1` ?
stdout: f

stdin: Record lookup: outcome of this test for `CCc1cc(C(=O)c2ccc(C)cc2)c(NC(=O)CCl)s1` ?
stdout: t

stdin: Record lookup: outcome of this test for `COc1ccc(C(=O)NC(=S)NNC(=O)CCc2ccccc2)cc1` ?
stdout: f

stdin: Record lookup: outcome of this test for `COc1ccc(S(=O)(=O)/N=C2\C=C(Nc3ccc(O)cc3)C(=O)c3ccccc32)cc1` ?
stdout: t
